organism: Rattus norvegicus; assay: Open TG-GATES - Regimen: Daily Repeat; format: toxicity, organism-based, Sprague-Dawley; design: regimen Daily Repeat, gender Male, age 6 weeks; settings: in vivo, po, 0 mg/kg, […], tissue Plasma, route gavage, dose level Control, time 7 day
Can you tell me Cl for the items I'm about to list?
Numbers only; they are read as meq/L.

Output Cl of `O=C(O)c1ccccc1Nc1ccccc1`
106.2

Output Cl of `COc1ccc([C@@H]2Sc3ccccc3N(CCN(C)C)C(=O)[C@@H]2OC(C)=O)cc1`
106.4

Output Cl of CCCCNC(=O)NS(=O)(=O)c1ccc(C)cc1 [TOLBUTAMIDE]
103.8

Output Cl of `O=c1ccc2ccccc2o1`
104.8

Output Cl of `CCO`
105.6

Output Cl of `CCCCC1C(=O)N(c2ccccc2)N(c2ccccc2)C1=O`
105.4

Output Cl of CN(CCOc1ccc(CC2SC(=O)NC2=O)cc1)c1ccccn1.O=C(O)/C=C\C(=O)O (stereo unspecified) [ROSIGLITAZONE MALEATE]
104.8

Output Cl of CC(S)C(=O)NCC(=O)O (stereo unspecified)
107.2

Output Cl of `CN(C/C=C/C#CC(C)(C)C)Cc1cccc2ccccc12`
102.8

Output Cl of `Nc1ccc(Cc2ccc(N)cc2)cc1`
106

Output Cl of `CC(=O)[C@@]1(O)CC[C@H]2[C@@H]3C=C(Cl)C4=CC(=O)CC[C@]4(C)[C@H]3CC[C@@]21C`
105.8

----------
species on record: Rattus norvegicus; experiment: Open TG-GATES - Regimen: Daily Repeat; assay type: toxicity, organism-based, Sprague-Dawley; set-up: regimen Daily Repeat, gender Male, age 6 weeks; details: in vivo, po, 300 mg/kg, 72 h, tissue Plasma, route gavage, dose level Middle, time 3 day
quantity: AST (IU/L)
Numbers only; they are read as IU/L.

Output AST of CC(=O)[C@@]1(O)CC[C@H]2[C@@H]3C=C(Cl)C4=CC(=O)CC[C@]4(C)[C@H]3CC[C@@]21C [CHLORMADINONE]
76.4

Output AST of O=C(O)c1ccccc1Nc1ccccc1 [FENAMIC ACID]
64.8

Output AST of CCCCNC(=O)NS(=O)(=O)c1ccc(C)cc1 [TOLBUTAMIDE]
70.2

Output AST of CC(S)C(=O)NCC(=O)O (centres undefined) [TIOPRONIN]
75.2

----------
Can you tell me TERMINAL_BW for the items I'm about to list?
organism: Rattus norvegicus; assay: Open TG-GATES - Regimen: Daily Repeat; format: toxicity, organism-based, Sprague-Dawley; design: regimen Daily Repeat, gender Male, age 6 weeks; conditions: in vivo, po, 300 mg/kg, 72 h, route gavage, dose level Middle, time 3 day
Numbers only; they are read as g.

Output TERMINAL_BW of CCCCNC(=O)NS(=O)(=O)c1ccc(C)cc1 [TOLBUTAMIDE]
233.2

Output TERMINAL_BW of CC(S)C(=O)NCC(=O)O (centres undefined)
224.5

Output TERMINAL_BW of `O=C(O)c1ccccc1Nc1ccccc1`
241.8

Output TERMINAL_BW of `CC(=O)[C@@]1(O)CC[C@H]2[C@@H]3C=C(Cl)C4=CC(=O)CC[C@]4(C)[C@H]3CC[C@@]21C`
228.1

----------
species on record: Rattus norvegicus; assay: Open TG-GATES - Regimen: Daily Repeat; format: toxicity, organism-based, Sprague-Dawley; design: regimen Daily Repeat, gender Male, age 6 weeks; conditions: in vivo, po, 100 mg/kg, […], tissue Plasma, route gavage, dose level Low, time 28 day
Can you tell me ALT for the items I'm about to list?
Numbers only; they are read as IU/L.

Output ALT of `CC(=O)[C@@]1(O)CC[C@H]2[C@@H]3C=C(Cl)C4=CC(=O)CC[C@]4(C)[C@H]3CC[C@@]21C`
46.8

Output ALT of CC(S)C(=O)NCC(=O)O (centres undefined)
34.6

Output ALT of CCCCNC(=O)NS(=O)(=O)c1ccc(C)cc1 [TOLBUTAMIDE]
38

Output ALT of `O=C(O)c1ccccc1Nc1ccccc1`
33.4

----------
Can you tell me Ca for the items I'm about to list?
species on record: Rattus norvegicus; assay: Open TG-GATES - Regimen: Daily Repeat; format: toxicity, organism-based, Sprague-Dawley; set-up: regimen Daily Repeat, gender Male, age 6 weeks; settings: in vivo, po, 0 mg/kg, 72 h, tissue Plasma, route gavage, dose level Control, time 3 day
Numbers only; they are read as mg/dL.

Output Ca of `O=C(O)c1ccccc1Nc1ccccc1`
11.6

Output Ca of `CCO`
10.9

Output Ca of CN(CCOc1ccc(CC2SC(=O)NC2=O)cc1)c1ccccn1.O=C(O)/C=C\C(=O)O (stereo unspecified) [ROSIGLITAZONE MALEATE]
11.7

Output Ca of `COc1ccc([C@@H]2Sc3ccccc3N(CCN(C)C)C(=O)[C@@H]2OC(C)=O)cc1`
11.2

Output Ca of CCCCNC(=O)NS(=O)(=O)c1ccc(C)cc1 [TOLBUTAMIDE]
11.3

Output Ca of `CC(=O)[C@@]1(O)CC[C@H]2[C@@H]3C=C(Cl)C4=CC(=O)CC[C@]4(C)[C@H]3CC[C@@]21C`
10.8

Output Ca of `Nc1ccc(Cc2ccc(N)cc2)cc1`
11

Output Ca of `CCCCC1C(=O)N(c2ccccc2)N(c2ccccc2)C1=O`
10.6

Output Ca of CC(S)C(=O)NCC(=O)O (stereo unspecified)
10.5

Output Ca of `O=c1ccc2ccccc2o1`
10.7

Output Ca of `CN(C/C=C/C#CC(C)(C)C)Cc1cccc2ccccc12`
10.8

----------
Can you tell me K for the items I'm about to list?
species on record: Rattus norvegicus; test: Open TG-GATES - Regimen: Single; assay type: toxicity, organism-based, Sprague-Dawley; design: regimen Single, gender Male, age 6 weeks; settings: in vivo, po, 0 mg/kg, 3 h, tissue Plasma, route gavage, dose level Control
Numbers only; they are read as meq/L.

Output K of `Nc1ccc(Cc2ccc(N)cc2)cc1`
3.7

Output K of `CC(=O)[C@@]1(O)CC[C@H]2[C@@H]3C=C(Cl)C4=CC(=O)CC[C@]4(C)[C@H]3CC[C@@]21C`
4.3

Output K of `COc1cc2ncnc(Nc3ccc(F)c(Cl)c3)c2cc1OCCCN1CCOCC1`
4.1

Output K of CC(S)C(=O)NCC(=O)O (stereo not given)
4.1

Output K of `CN(C/C=C/C#CC(C)(C)C)Cc1cccc2ccccc12`
3.7

----------
species: Rattus norvegicus; experiment: Open TG-GATES - Regimen: Daily Repeat; format: toxicity, organism-based, Sprague-Dawley; design: regimen Daily Repeat, gender Male, age 6 weeks; details: in vivo, po, 300 mg/kg, […], tissue Plasma, route gavage, dose level Middle, time 28 day
quantity: CRE (mg/dL)
Numbers only; they are read as mg/dL.

Output CRE of CCCCNC(=O)NS(=O)(=O)c1ccc(C)cc1 [TOLBUTAMIDE]
0.2

Output CRE of CC(S)C(=O)NCC(=O)O (centres undefined) [TIOPRONIN]
0.2

Output CRE of CC(=O)[C@@]1(O)CC[C@H]2[C@@H]3C=C(Cl)C4=CC(=O)CC[C@]4(C)[C@H]3CC[C@@]21C [CHLORMADINONE]
0.2

Output CRE of O=C(O)c1ccccc1Nc1ccccc1 [FENAMIC ACID]
0.3

----------
species on record: Rattus norvegicus; assay: Open TG-GATES - Regimen: Single; type: toxicity, organism-based, Sprague-Dawley; design: regimen Single, gender Male, age 6 weeks; details: in vivo, po, 0 mg/kg, 9 h, tissue Blood, route gavage, dose level Control
Can you tell me Ret for the items I'm about to list?
Numbers only; they are read as %.

Output Ret of `O=c1ccc2ccccc2o1`
9.2

Output Ret of `CCO`
11.7

Output Ret of `O=C(O)c1ccccc1Nc1ccccc1`
8.1

Output Ret of `CC(=O)[C@@]1(O)CC[C@H]2[C@@H]3C=C(Cl)C4=CC(=O)CC[C@]4(C)[C@H]3CC[C@@]21C`
8.2

Output Ret of `CCN(CC)C(=S)SSC(=S)N(CC)CC`
7.1

Output Ret of CN(CCOc1ccc(CC2SC(=O)NC2=O)cc1)c1ccccn1.O=C(O)/C=C\C(=O)O (stereo unspecified) [ROSIGLITAZONE MALEATE]
9

Output Ret of `Nc1ccc(Cc2ccc(N)cc2)cc1`
8

Output Ret of `CN(C/C=C/C#CC(C)(C)C)Cc1cccc2ccccc12`
6.8

Output Ret of NS(=O)(=O)c1cc(C(=O)O)c(NCc2ccco2)cc1Cl [FUROSEMIDE]
7.8

Output Ret of CCCCNC(=O)NS(=O)(=O)c1ccc(C)cc1 [TOLBUTAMIDE]
8.3

Output Ret of CC(S)C(=O)NCC(=O)O (stereo unspecified)
8.3
